Data provenance is patent US20180353500A1.

half-life for assorted molecules
# Assay: Human crossover study for D9-ivacaftor and ivacaftor (150 mg tablets)
# Type: in vivo
# Conditions: human, in vivo, oral, 150 mg single dose, fed

{"columns": ["Molecule", "Recorded Endpoint", "Observed Value"],
 "data": [
  ["[2H]C([2H])([2H])C(c1cc(C(C)(C)C)c(NC(=O)c2c[nH]c3ccccc3c2=O)cc1O)(C([2H])([2H])[2H])C([2H])([2H])[2H]", "half-life", "~15 h"]
]}

Turning to the following molecule.
So what does the record say about half-life for CC(C)(C)c1cc(C(C)(C)C)c(NC(=O)c2c[nH]c3ccccc3c2=O)cc1O [ivacaftor, reference compound] ?
~11 h
